- EXPERIMENTAL DETAILS: Terminal half life in rat at 1 mg/kg, iv
- Assay type: ADME, organism-based
- DETAILS: in vivo, read-out: beta t1/2 (converted)
VALUE KIND: half-life (h)
Number in h, nothing else.

Here's what some known entries look like.
{"SMILES STR": "Cl.OCCC/C(=C(\\c1ccc(O)cc1)c1ccc(C2CCN(C3CC3)CC2)cc1)c1ccccc1", "READOUT UNITS": "h", "REPORTED": 3}
{"SMILES STR": "CC(C)N1CC=C(c2ccc(/C(=C(/CCCO)c3ccccc3)c3ccc(O)cc3)cc2)CC1.Cl", "READOUT UNITS": "h", "REPORTED": 2.6}

q: Endpoint output: half-life of `CC(C)N1CC=C(c2ccc(/C(=C(/CCCO)c3ccccc3)c3cccc(O)c3)cc2)CC1.Cl` . Value?
a: 2.4

---

- ASSAYED SYSTEM: CYP3A4 (Homo sapiens, UniProt P08684)
- Sequence (P08684 whole entry): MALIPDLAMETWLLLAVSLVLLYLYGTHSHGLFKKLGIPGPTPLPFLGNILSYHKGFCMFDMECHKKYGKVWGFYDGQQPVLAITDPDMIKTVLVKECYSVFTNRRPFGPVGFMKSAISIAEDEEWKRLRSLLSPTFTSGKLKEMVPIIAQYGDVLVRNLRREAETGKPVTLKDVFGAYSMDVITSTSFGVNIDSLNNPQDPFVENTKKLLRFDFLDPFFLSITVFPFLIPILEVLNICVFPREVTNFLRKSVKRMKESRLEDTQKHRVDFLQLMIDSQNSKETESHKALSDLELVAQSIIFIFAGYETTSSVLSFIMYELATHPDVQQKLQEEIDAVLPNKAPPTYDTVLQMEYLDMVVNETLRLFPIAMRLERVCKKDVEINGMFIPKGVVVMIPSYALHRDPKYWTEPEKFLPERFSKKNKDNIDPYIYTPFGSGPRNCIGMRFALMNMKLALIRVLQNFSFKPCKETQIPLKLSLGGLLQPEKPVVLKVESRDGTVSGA
- EXPERIMENTAL DETAILS: Inhibition of CYP3A4 (unknown origin) in liver microsomes at 10 uM incubated for 15 mins relative to control
- Assay type: ADME
We begin with a simple list: items and their reported inhibition at […], 10 µM.
Number in %, nothing else.

q: Lab note: need inhibition at […], 10 µM for `CC(C)N1CC=C(c2ccc(/C(=C(/CCCO)c3ccccc3)c3cccc(O)c3)cc2)CC1.Cl` on CYP3A4 (Homo sapiens, UniProt P08684), anyone have it?
a: 41.9

q: Lab note: need inhibition at […], 10 µM for `Cl.OCCC/C(=C(\c1ccc(O)cc1)c1ccc(C2CCNCC2)cc1)c1ccccc1` on CYP3A4 (Homo sapiens, UniProt P08684), anyone have it?
a: 33.8

q: Lab note: need inhibition at […], 10 µM for `CC(C)N1CCC(c2ccc(/C(=C(/CCCO)c3ccccc3)c3ccc(O)cc3)cc2)CC1.Cl` on CYP3A4 (Homo sapiens, UniProt P08684), anyone have it?
a: 42
